Reference source for all entries: BigSolDB 2.1

details: in toluene, 298.15 K
assay_metric: solubility (mole fraction)

{"columns": ["smiles_data", "solubility (mole fraction)"],
 "data": [
  ["COc1c(NS(=O)(=O)c2ccc(F)cc2)cc(-c2ccc3nccc(N4CCOCC4)c3c2)cc1C(N)=O", "6.59e-06"]
]}

(I) COc1c(NS(=O)(=O)c2ccc(F)cc2)cc(-c2ccc3ncnc(N4CCOCC4)c3c2)cc1C(N)=O
(II) COc1c(NS(=O)(=O)c2ccc(C)cc2)cc(-c2ccc3ncnc(N4CCOCC4)c3c2)cc1C(N)=O
Param pair: I , II . Output: the one whose solubility (mole fraction) is numerically greater. Provide the label of your selected option as the answer.
II
(II: 3.32e-05, I: 1.05e-05)

---

details: in toluene, 323.15 K
assay_metric: solubility (mole fraction)

{"columns": ["smiles_data", "value_observed"],
 "data": [
  ["COc1c(NS(=O)(=O)c2ccc(F)cc2)cc(-c2ccc3ncnc(N4CCOCC4)c3c2)cc1C(N)=O", "1.83e-05"]
]}

(P) COc1c(NS(=O)(=O)c2ccc(C)cc2)cc(-c2ccc3ncnc(N4CCOCC4)c3c2)cc1C(N)=O
(Q) COc1c(NS(=O)(=O)c2ccc(F)cc2)cc(-c2ccc3nccc(N4CCOCC4)c3c2)cc1C(N)=O
When their solubility (mole fraction) values are compared, which is larger, P or Q ? Returns: label corresponding to the selected item.
P

---

conditions: in water, 288.15 K
assay_metric: solubility (mole fraction)

(A) COc1c(NS(=O)(=O)c2ccc(F)cc2)cc(-c2ccc3ncnc(N4CCOCC4)c3c2)cc1C(N)=O
(B) COc1c(NS(=O)(=O)c2ccc(F)cc2)cc(-c2ccc3nccc(N4CCOCC4)c3c2)cc1C(N)=O
(C) COc1c(NS(=O)(=O)c2ccc(C)cc2)cc(-c2ccc3ncnc(N4CCOCC4)c3c2)cc1C(N)=O
Rank the listed compounds according to solubility (mole fraction), from the largest value downward. Answer with the labels in sequence, matching the requested order.
C, A, B

---

conditions: in ethyl acetate, 308.15 K
assay_metric: solubility (mole fraction)

{"columns": ["smiles_data", "solubility (mole fraction)"],
 "data": [
  ["COc1c(NS(=O)(=O)c2ccc(F)cc2)cc(-c2ccc3ncnc(N4CCOCC4)c3c2)cc1C(N)=O", 0.00015]
]}

(P) COc1c(NS(=O)(=O)c2ccc(F)cc2)cc(-c2ccc3nccc(N4CCOCC4)c3c2)cc1C(N)=O
(Q) COc1c(NS(=O)(=O)c2ccc(C)cc2)cc(-c2ccc3ncnc(N4CCOCC4)c3c2)cc1C(N)=O
Which value of solubility (mole fraction) is numerically greater: that of P or that of Q ? Give the label of your selection.
Q
(Q: 0.000357, P: 0.00016)

---

conditions: in toluene, 303.15 K
assay_metric: solubility (mole fraction)

(P) COc1c(NS(=O)(=O)c2ccc(F)cc2)cc(-c2ccc3nccc(N4CCOCC4)c3c2)cc1C(N)=O
(Q) COc1c(NS(=O)(=O)c2ccc(C)cc2)cc(-c2ccc3ncnc(N4CCOCC4)c3c2)cc1C(N)=O
Select the item whose solubility (mole fraction) value is smaller, choosing between P and Q . Pick one and reply with its label.
P
(P: 7.29e-06, Q: 3.98e-05)

---

conditions: in ethyl acetate, 293.15 K
assay_metric: solubility (mole fraction)

{"columns": ["smiles_data", "solubility (mole fraction)"],
 "data": [
  ["COc1c(NS(=O)(=O)c2ccc(F)cc2)cc(-c2ccc3nccc(N4CCOCC4)c3c2)cc1C(N)=O", 0.000115]
]}

(1) COc1c(NS(=O)(=O)c2ccc(C)cc2)cc(-c2ccc3ncnc(N4CCOCC4)c3c2)cc1C(N)=O
(2) COc1c(NS(=O)(=O)c2ccc(F)cc2)cc(-c2ccc3ncnc(N4CCOCC4)c3c2)cc1C(N)=O
Choose between 1 and 2 : whose measured solubility (mole fraction) value is numerically larger? Response format: the label of the selected entry.
1
(1: 0.000294, 2: 0.000101)

---

details: in ethyl acetate, 288.15 K
assay_metric: solubility (mole fraction)

{"columns": ["smiles_data", "solubility (mole fraction)"],
 "data": [
  ["COc1c(NS(=O)(=O)c2ccc(F)cc2)cc(-c2ccc3ncnc(N4CCOCC4)c3c2)cc1C(N)=O", "9.51e-05"]
]}

(a) COc1c(NS(=O)(=O)c2ccc(F)cc2)cc(-c2ccc3nccc(N4CCOCC4)c3c2)cc1C(N)=O
(b) COc1c(NS(=O)(=O)c2ccc(C)cc2)cc(-c2ccc3ncnc(N4CCOCC4)c3c2)cc1C(N)=O
Hi, I'm comparing a with b and wondering which one has the bigger number for solubility (mole fraction). Any idea? Label of pick, please.
b

---

details: in water, 328.15 K
assay_metric: solubility (mole fraction)

{"columns": ["smiles_data", "solubility (mole fraction)"],
 "data": [
  ["COc1c(NS(=O)(=O)c2ccc(F)cc2)cc(-c2ccc3ncnc(N4CCOCC4)c3c2)cc1C(N)=O", "2.44e-06"]
]}

(A) COc1c(NS(=O)(=O)c2ccc(C)cc2)cc(-c2ccc3ncnc(N4CCOCC4)c3c2)cc1C(N)=O
(B) COc1c(NS(=O)(=O)c2ccc(F)cc2)cc(-c2ccc3nccc(N4CCOCC4)c3c2)cc1C(N)=O
Thinking about recorded solubility (mole fraction) values, which is higher, A or B ? Please respond with the label that marks your chosen entry.
A

---

settings: in toluene, 318.15 K
assay_metric: solubility (mole fraction)

(I) COc1c(NS(=O)(=O)c2ccc(C)cc2)cc(-c2ccc3ncnc(N4CCOCC4)c3c2)cc1C(N)=O
(II) COc1c(NS(=O)(=O)c2ccc(F)cc2)cc(-c2ccc3nccc(N4CCOCC4)c3c2)cc1C(N)=O
(III) COc1c(NS(=O)(=O)c2ccc(F)cc2)cc(-c2ccc3ncnc(N4CCOCC4)c3c2)cc1C(N)=O
Put the above entries in order of falling solubility (mole fraction). Your answer should be the labels, listed in the requested order.
I, III, II

---

conditions: in methanol, 328.15 K
assay_metric: solubility (mole fraction)

{"columns": ["smiles_data", "solubility (mole fraction)"],
 "data": [
  ["COc1c(NS(=O)(=O)c2ccc(F)cc2)cc(-c2ccc3nccc(N4CCOCC4)c3c2)cc1C(N)=O", 0.000977]
]}

(I) COc1c(NS(=O)(=O)c2ccc(F)cc2)cc(-c2ccc3ncnc(N4CCOCC4)c3c2)cc1C(N)=O
(II) COc1c(NS(=O)(=O)c2ccc(C)cc2)cc(-c2ccc3ncnc(N4CCOCC4)c3c2)cc1C(N)=O
Field: lower solubility (mole fraction) | Options: I / II Use the label to indicate which entry you chose.
I

---

details: in chloroform, 308.15 K
assay_metric: solubility (mole fraction)

(A) COc1c(NS(=O)(=O)c2ccc(F)cc2)cc(-c2ccc3nccc(N4CCOCC4)c3c2)cc1C(N)=O
(B) COc1c(NS(=O)(=O)c2ccc(C)cc2)cc(-c2ccc3ncnc(N4CCOCC4)c3c2)cc1C(N)=O
(C) COc1c(NS(=O)(=O)c2ccc(F)cc2)cc(-c2ccc3ncnc(N4CCOCC4)c3c2)cc1C(N)=O
Order the records by solubility (mole fraction), with each subsequent value no larger than the one before. List the labels, following the order given in the request.
B, C, A
(B: 0.00466, C: 0.000223, A: 7.72e-05)

---

settings: in ethyl acetate, 313.15 K
assay_metric: solubility (mole fraction)

{"columns": ["smiles_data", "solubility (mole fraction)"],
 "data": [
  ["COc1c(NS(=O)(=O)c2ccc(F)cc2)cc(-c2ccc3ncnc(N4CCOCC4)c3c2)cc1C(N)=O", 0.000171]
]}

(A) COc1c(NS(=O)(=O)c2ccc(F)cc2)cc(-c2ccc3nccc(N4CCOCC4)c3c2)cc1C(N)=O
(B) COc1c(NS(=O)(=O)c2ccc(C)cc2)cc(-c2ccc3ncnc(N4CCOCC4)c3c2)cc1C(N)=O
Would you let me know which has the greater solubility (mole fraction) value, A or B ? Record your answer as the label of the chosen record.
B
(B: 0.000412, A: 0.000182)

---

details: in chloroform, 303.15 K
assay_metric: solubility (mole fraction)

{"columns": ["smiles_data", "value_observed"],
 "data": [
  ["COc1c(NS(=O)(=O)c2ccc(C)cc2)cc(-c2ccc3ncnc(N4CCOCC4)c3c2)cc1C(N)=O", 0.00398]
]}

(P) COc1c(NS(=O)(=O)c2ccc(F)cc2)cc(-c2ccc3nccc(N4CCOCC4)c3c2)cc1C(N)=O
(Q) COc1c(NS(=O)(=O)c2ccc(F)cc2)cc(-c2ccc3ncnc(N4CCOCC4)c3c2)cc1C(N)=O
Consider P and Q . Which of these has its solubility (mole fraction) at a higher number? Reply briefly: the label of your chosen item.
Q

---

details: in water, 293.15 K
assay_metric: solubility (mole fraction)

{"columns": ["smiles_data", "value_observed"],
 "data": [
  ["COc1c(NS(=O)(=O)c2ccc(F)cc2)cc(-c2ccc3ncnc(N4CCOCC4)c3c2)cc1C(N)=O", "8.05e-07"]
]}

(a) COc1c(NS(=O)(=O)c2ccc(F)cc2)cc(-c2ccc3nccc(N4CCOCC4)c3c2)cc1C(N)=O
(b) COc1c(NS(=O)(=O)c2ccc(C)cc2)cc(-c2ccc3ncnc(N4CCOCC4)c3c2)cc1C(N)=O
Could you check which of a and b has a smaller value for solubility (mole fraction)? Mark your answer with the label of the selected entry.
a
(a: 5.68e-07, b: 1.19e-06)
